- Target Or System: T1, CEACAM1 (Sino Biological) (human, UniProt P13688 35-428, limits assumed)
- T1 construct: may be the same as CEACAM1-HIS; also called hCEACAM1; biotinylated soluble CEACAM1
- T1 sequence: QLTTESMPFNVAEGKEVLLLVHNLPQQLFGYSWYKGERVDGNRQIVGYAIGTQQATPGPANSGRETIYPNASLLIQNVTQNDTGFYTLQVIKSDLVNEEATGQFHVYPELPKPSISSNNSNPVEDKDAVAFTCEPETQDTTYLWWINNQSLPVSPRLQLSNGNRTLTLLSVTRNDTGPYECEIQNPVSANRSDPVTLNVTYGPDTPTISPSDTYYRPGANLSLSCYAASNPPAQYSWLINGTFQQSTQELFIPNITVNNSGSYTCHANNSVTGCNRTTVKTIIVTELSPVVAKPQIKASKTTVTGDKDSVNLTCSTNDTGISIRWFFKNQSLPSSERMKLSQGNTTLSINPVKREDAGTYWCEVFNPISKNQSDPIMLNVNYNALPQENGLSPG
- Assay Summary: SPR single-cycle
Reported Property: fold better than Parent (KD) (fold)
Express your answer in fold, writing the number without its unit.

Parent VH/L20 (antibody, IgG4, V domains shown, IgG4 S241P, kappa) VH: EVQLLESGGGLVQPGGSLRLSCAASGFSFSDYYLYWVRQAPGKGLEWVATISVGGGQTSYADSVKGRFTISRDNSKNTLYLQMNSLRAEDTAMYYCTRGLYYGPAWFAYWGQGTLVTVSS VL: DIVMTQSPDSLAVSLGERATINCKSSQSLLNSANQKNYLAWYQQKPGQPPKLLIYFASTRESGVPDRFSGSGSGTDFTLTISSLQAEDVAVYYCQSHFPYPLTFGGGTKVEIK = 1.83
He1/L20 (antibody, IgG4, V domains shown, IgG4 S241P, kappa) VH: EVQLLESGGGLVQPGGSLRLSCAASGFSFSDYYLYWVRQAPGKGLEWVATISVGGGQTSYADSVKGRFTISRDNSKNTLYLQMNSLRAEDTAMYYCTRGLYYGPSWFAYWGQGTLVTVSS VL: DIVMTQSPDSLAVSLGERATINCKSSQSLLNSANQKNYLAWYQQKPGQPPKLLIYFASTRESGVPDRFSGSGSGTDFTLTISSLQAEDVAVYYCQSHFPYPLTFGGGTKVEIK = 2.09

Attention now shifts to the item below.
Looking up He4/L4 #1 (antibody, IgG4, V domains shown, IgG4 S241P, kappa) VH: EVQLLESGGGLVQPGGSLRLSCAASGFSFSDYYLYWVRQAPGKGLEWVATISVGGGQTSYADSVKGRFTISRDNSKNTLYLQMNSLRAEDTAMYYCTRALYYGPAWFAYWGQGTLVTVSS VL: DIVMTQSPDSLAVSLGERATINCKSSQSLLNSANQKNYLAWYQQKPGQPPKLLIYFASTRESGVPDRFSGSGSGTDFTLTISSLQAEDVAVYYCQSHFPYYYTFGGGTKVEIK , I found its fold better than Parent (KD) recorded as 1.91
